Molecular target: HIS-TGFβR2 WT (Homo sapiens)
Sequence (P37173 23-567): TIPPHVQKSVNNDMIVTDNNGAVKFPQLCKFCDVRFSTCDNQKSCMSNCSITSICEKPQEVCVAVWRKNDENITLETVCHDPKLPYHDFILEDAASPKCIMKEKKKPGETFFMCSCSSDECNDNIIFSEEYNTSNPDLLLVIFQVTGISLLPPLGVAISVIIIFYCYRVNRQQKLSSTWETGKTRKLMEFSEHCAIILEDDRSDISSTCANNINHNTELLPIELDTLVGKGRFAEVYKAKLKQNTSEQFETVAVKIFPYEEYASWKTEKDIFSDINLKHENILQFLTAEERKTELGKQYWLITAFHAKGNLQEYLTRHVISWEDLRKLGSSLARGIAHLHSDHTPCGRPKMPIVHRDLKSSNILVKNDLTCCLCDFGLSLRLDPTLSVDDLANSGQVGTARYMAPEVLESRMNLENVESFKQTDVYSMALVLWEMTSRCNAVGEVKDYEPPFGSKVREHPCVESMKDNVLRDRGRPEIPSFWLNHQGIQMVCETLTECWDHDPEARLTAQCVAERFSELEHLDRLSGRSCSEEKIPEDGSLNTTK
Assay: HTRF probe-displacement assay, HIS-TGFβR2 WT
Assay type: binding
readout: IC50 (µM)
Express the result in µM but write the number alone.

Some solved entries appear below for comparison.
| compound | IC50, µM |
| --- | --- |
| COc1cnc2c(-c3cccc(Cl)n3)c(-c3ccnc(NC(C)=O)c3)[nH]c2c1 | 0.076 |
| COc1ccc(-c2c(-c3ccnc(NC(C)=O)c3)[nH]c3c(C(O)C(C)C)ccnc23)cn1 (stereo not shown) | 0.017 |
| O=C(CNCCO)Nc1cc(-c2[nH]c3cc(Cl)cnc3c2-c2ccc(F)cn2)ccn1 | 1.03 |

**Query** Identify IC50 associated with the compound [2H]C([2H])([2H])Oc1cnc2c(-c3cccc(C(F)F)n3)c(-c3ccnc(NC(C)=O)c3)[nH]c2c1
**Result** 2.62
